In this section we review reported Plasma active GLP-1 level (relative value to control group as 100), average value values for a set of molecules.
system: C57/BL6J mice; experiment: In vivo plasma GLP-1 level-increasing action: plasma active GLP-1 level (ELISA) after oral administration; conditions: Table 7, Experiment 2; 10 mg/kg oral, blood 30 minutes after; 0.5% CMC-Na group = 100
Just the number.

As a guide, the following entries are already answered.
INSERT INTO results (molecule, observedmeasurement) VALUES
  ('C[C@@H]1NC(=O)[C@@H]2CCCN2C1=O [compound 187, cyclo-L-alanyl-proline]', 217),
  ('NC(N)=NCCCC1NC(=O)C(CC(=O)O)NC1=O (stereo not drawn) [compound 207, cyclo-arginyl-aspartic acid]', 266),
  ('CC[C@H](C)[C@@H]1NC(=O)[C@H](CCC(N)=O)NC1=O [compound 182, cyclo-glutaminyl-isoleucine]', 188),
  ('CSCC[C@@H]1NC(=O)[C@H](CCCNC(=N)N)NC1=O [compound 199, cyclo-methionyl-arginine]', 217),
  ('NC(N)=NCCC[C@@H]1NC(=O)[C@@H]2CCCN2C1=O [compound 209, cyclo-arginyl-proline]', 315);

Prompt: Can you look up the measured Plasma active GLP-1 level (relative value to control group as 100), average value of NC(=O)CC1NC(=O)CNC1=O (stereo not drawn) [compound 215, cyclo-asparaginyl-glycine] for me?
Completion: 305

Prompt: Can you look up the measured Plasma active GLP-1 level (relative value to control group as 100), average value of NC(=O)CC[C@@H]1NC(=O)[C@H](Cc2cnc[nH]2)NC1=O [compound 191, cyclo-glutaminyl-histidine] for me?
Completion: 247

Prompt: Can you look up the measured Plasma active GLP-1 level (relative value to control group as 100), average value of O=C(O)C[C@@H]1NC(=O)[C@H](CO)NC1=O [compound 193, cyclo-aspartyl-serine] for me?
Completion: 266

Prompt: Can you look up the measured Plasma active GLP-1 level (relative value to control group as 100), average value of CC(C)[C@@H]1NC(=O)[C@H](CCCN=C(N)N)NC1=O [compound 194, cyclo-arginyl-valine] for me?
Completion: 237

###

system: C57/BL6J mice; assay: In vivo plasma GLP-1 level-increasing action: plasma active GLP-1 level (ELISA) after oral administration; settings: Table 13, Experiment 8; 10 mg/kg oral, blood 30 minutes after; 0.5% CMC-Na group = 100
Decision: Plasma active GLP-1 level (relative value to control group as 100), average value beneath 100 gives t; Plasma active GLP-1 level (relative value to control group as 100), average value meeting or exceeding 100 gives f.

Consider the worked cases shown below.
INSERT INTO results (molecule, qualitativelabel) VALUES
  ('CC(C)C1NC(=O)C(Cc2cnc[nH]2)NC1=O (centres unmarked)', 'f'),
  ('CC(C)C[C@@H]1NC(=O)[C@H](Cc2cnc[nH]2)NC1=O', 't'),
  ('CC(C)CC1NC(=O)C(CC(N)=O)NC1=O (centres unmarked)', 't'),
  ('CC(C)C1NC(=O)C(CCC(=O)O)NC1=O (centres unmarked)', 'f'),
  ('CCC(C)C1NC(=O)C(CCSC)NC1=O (centres unmarked)', 'f');

Prompt: Is 100 strictly greater than the molecule's reported Plasma active GLP-1 level (relative value to control group as 100), average value? molecule: CC(C)CC1NC(=O)C(C(C)O)NC1=O (centres unmarked)
Completion: t

Prompt: Is 100 strictly greater than the molecule's reported Plasma active GLP-1 level (relative value to control group as 100), average value? molecule: CSCCC1NC(=O)C(Cc2cnc[nH]2)NC1=O (centres unmarked)
Completion: f

Prompt: Is 100 strictly greater than the molecule's reported Plasma active GLP-1 level (relative value to control group as 100), average value? molecule: CC1NC(=O)C(C(C)C)NC1=O (centres unmarked)
Completion: t

###

Tested on: NCI-H716 cells
Assay: In vitro GLP-1 secretion-accelerating action: amount of active GLP-1 secreted (ELISA)
Assay type: cell-based
Conditions: Table 4, Experiment 4; cyclic dipeptide 10 mM with 10 μM Sitagliptin phosphate, 1 hour; group with no cyclic dipeptide = 100
Experimental: Among the cyclic dipeptides, 92 highly water-soluble cyclic dipeptides were used in the following experiment. […] After 1 hour, the resultant solution was recovered, and the amount of active GLP-1 in the solution was measured by using the ELISA kit. […]
resultType: Amount of active GLP-1 secreted (relative value to control group as 100), average value
Just the number.

INSERT INTO assay_data (compound, observedmeasurement) VALUES
  ('CSCCC1NC(=O)C(CC(N)=O)NC1=O (centres unmarked) [compound 175, cyclo-asparaginyl-methionine]', 218),
  ('N=C(N)NCCC[C@@H]1NC(=O)[C@H](Cc2c[nH]c3ccccc23)NC1=O [compound 189, cyclo-tryptophanyl-arginine]', 314),
  ('NC(=O)CC1NC(=O)CNC1=O (centres unmarked) [compound 215, cyclo-asparaginyl-glycine]', 611),
  ('CSCC[C@@H]1NC(=O)[C@H](CCCNC(=N)N)NC1=O [compound 199, cyclo-methionyl-arginine]', 652),
  ('NC(=O)CCC1NC(=O)C(CC(N)=O)NC1=O (centres unmarked) [compound 174, Cyclo(Gln-Asn)]', 305);

Prompt: Can you look up the measured Amount of active GLP-1 secreted (relative value to control group as 100), average value of CSCCC1NC(=O)C(CC(=O)O)NC1=O (centres unmarked) [compound 172, Cyclo(Met-Asp)] for me?
Completion: 141

Prompt: Can you look up the measured Amount of active GLP-1 secreted (relative value to control group as 100), average value of NC(N)=NCCCC1NC(=O)C(CC(=O)O)NC1=O (centres unmarked) [compound 207, cyclo-arginyl-aspartic acid] for me?
Completion: 1255

Prompt: Can you look up the measured Amount of active GLP-1 secreted (relative value to control group as 100), average value of N=C(N)NCCC[C@@H]1NC(=O)[C@H](CCCNC(=N)N)NC1=O [compound 212, cyclo-arginyl-arginine] for me?
Completion: 1050

###

tested on: NCI-H716 cells; test: In vitro GLP-1 secretion-accelerating action: amount of active GLP-1 secreted (ELISA); assay type: cell-based; conditions: Table 5, Experiment 5; cyclic dipeptide 10 mM with 10 μM Sitagliptin phosphate, 1 hour; group with no cyclic dipeptide = 100
Label 1.0 when Amount of active GLP-1 secreted (relative value to control group as 100), average value is at or above 100; otherwise label 0.0.

Consider the worked cases shown below.
INSERT INTO measurements (compound, qualitativelabel) VALUES
  ('CC(C)C[C@@H]1NC(=O)CNC1=O', 1.0),
  ('NC(=O)CC[C@@H]1NC(=O)CNC1=O [compound 24, Cyclo(Gln-Gly)]', 0.0),
  ('O=C1NCC(=O)N2CCC[C@@H]12', 1.0),
  ('O=C(O)C[C@@H]1NC(=O)CNC1=O', 0.0),
  ('NC(=O)CC[C@@H]1NC(=O)CNC1=O [compound 36, Cyclo(Gln-Gly)]', 0.0),
  ('O=C1CNC(=O)[C@H](Cc2cnc[nH]2)N1', 0.0);

Moving on to the next compound.
Prompt: Check the entry O=C1CNC(=O)CN1 : does Amount of active GLP-1 secreted (relative value to control group as 100), average value equal or exceed 100?
Completion: 1.0

###

test system: C57/BL6J mice; assay: In vivo plasma GLP-1 level-increasing action: plasma active GLP-1 level (ELISA) after oral administration; conditions: Table 15, Experiment 10; 10 mg/kg oral, 30 minutes; Student's t-test
resultType: Significant difference (p < 0.05) vs control group, plasma active GLP-1 level

As a guide, the following entries are already answered.
INSERT INTO results (molecule, observedmeasurement) VALUES
  ('CSCC[C@@H]1NC(=O)[C@H]([C@H](C)O)NC1=O', 'Yes'),
  ('CC[C@H](C)[C@@H]1NC(=O)[C@H](CCCCN)NC1=O', 'Yes'),
  ('NC(=O)CC1NC(=O)C(CC(N)=O)NC1=O (stereo not drawn)', 'No'),
  ('CSCCC1NC(=O)C(C(C)C)NC1=O (stereo not drawn)', 'Yes'),
  ('CC1NC(=O)C(CS)NC1=O (stereo not drawn)', 'Yes');

Prompt: Value wanted: Significant difference (p < 0.05) vs control group, plasma active GLP-1 level (C57/BL6J mice) of entry CC(C)CC1NC(=O)C(CCC(N)=O)NC1=O (stereo not drawn)
Completion: Yes

Prompt: Value wanted: Significant difference (p < 0.05) vs control group, plasma active GLP-1 level (C57/BL6J mice) of entry O=C(O)CCC1NC(=O)C(CS)NC1=O (stereo not drawn)
Completion: Yes

Prompt: Value wanted: Significant difference (p < 0.05) vs control group, plasma active GLP-1 level (C57/BL6J mice) of entry CC[C@H](C)C1NC(=O)[C@H](CC(N)=O)NC1=O (stereo partly drawn)
Completion: Yes

Prompt: Value wanted: Significant difference (p < 0.05) vs control group, plasma active GLP-1 level (C57/BL6J mice) of entry CC(O)C1NC(=O)C(C(C)O)NC1=O (stereo not drawn)
Completion: Yes

Prompt: Value wanted: Significant difference (p < 0.05) vs control group, plasma active GLP-1 level (C57/BL6J mice) of entry CCC(C)C1NC(=O)CNC1=O (stereo not drawn)
Completion: No

Prompt: Value wanted: Significant difference (p < 0.05) vs control group, plasma active GLP-1 level (C57/BL6J mice) of entry O=C1N[C@@H](CS)C(=O)N[C@H]1CO
Completion: Yes

Prompt: Value wanted: Significant difference (p < 0.05) vs control group, plasma active GLP-1 level (C57/BL6J mice) of entry CC(C)[C@@H]1NC(=O)[C@H](CC(N)=O)NC1=O
Completion: Yes

Prompt: Value wanted: Significant difference (p < 0.05) vs control group, plasma active GLP-1 level (C57/BL6J mice) of entry CC[C@H](C)[C@@H]1NC(=O)[C@H]([C@H](C)O)NC1=O
Completion: Yes

Prompt: Value wanted: Significant difference (p < 0.05) vs control group, plasma active GLP-1 level (C57/BL6J mice) of entry NC(=O)CCC1NC(=O)C(CC(N)=O)NC1=O (stereo not drawn)
Completion: No

Prompt: Value wanted: Significant difference (p < 0.05) vs control group, plasma active GLP-1 level (C57/BL6J mice) of entry CC[C@H](C)[C@@H]1NC(=O)[C@H](Cc2cnc[nH]2)NC1=O
Completion: Yes

Prompt: Value wanted: Significant difference (p < 0.05) vs control group, plasma active GLP-1 level (C57/BL6J mice) of entry CC(C)[C@@H]1NC(=O)CNC1=O
Completion: No

Prompt: Value wanted: Significant difference (p < 0.05) vs control group, plasma active GLP-1 level (C57/BL6J mice) of entry CC[C@H](C)[C@@H]1NC(=O)[C@H](CC(=O)O)NC1=O
Completion: Yes

Prompt: Value wanted: Significant difference (p < 0.05) vs control group, plasma active GLP-1 level (C57/BL6J mice) of entry O=C1CNC(=O)C(CS)N1 (stereo not drawn)
Completion: Yes

Prompt: Value wanted: Significant difference (p < 0.05) vs control group, plasma active GLP-1 level (C57/BL6J mice) of entry CC(C)CC1NC(=O)C(CO)NC1=O (stereo not drawn)
Completion: Yes

Prompt: Value wanted: Significant difference (p < 0.05) vs control group, plasma active GLP-1 level (C57/BL6J mice) of entry CC(C)CC1NC(=O)C(CCC(=O)O)NC1=O (stereo not drawn)
Completion: Yes

Prompt: Value wanted: Significant difference (p < 0.05) vs control group, plasma active GLP-1 level (C57/BL6J mice) of entry CC(C)CC1NC(=O)C(CC(=O)O)NC1=O (stereo not drawn)
Completion: Yes
